assay: Drug recovery in cynomolgus monkey liver cytosol at pH 8.4 treated with in presence of NAD+ [14C]GSK2251052 at 500 uM after 3 hrs by liquid scintillation counting; format: ADME, Macaca fascicularis; details: pH 8.4, 3 h

- structure_string: "Cl.NC[C@H]1OB(O)c2c(OCCC(=O)O)cccc21"
  Drug recovery, %: 0.9

====

assay: Drug recovery in healthy human feces at 1500 mg, iv infusion for 1 hr as single dose after 72 hrs; format: ADME, organism-based; details: read-out: Drug recovery

- structure_string: "Cl.N[14CH2][C@H]1OB(O)c2c(OCCCO)cccc21"
  unit_annotation: "%"
  dose excreted at 72 h: 4.3

====

experiment: Drug recovery in healthy human urine at 1500 mg, iv infusion for 1 hr as single dose after 240 hrs; format: ADME, organism-based; conditions: read-out: Drug recovery

- structure_string: "Cl.N[14CH2][C@H]1OB(O)c2c(OCCCO)cccc21"
  dose excreted at 240 h, %: 88.8

====

experiment: Drug recovery in healthy human feces at 1500 mg, iv infusion for 1 hr as single dose after 24 hrs; type: ADME, organism-based; conditions: read-out: Drug recovery

- structure_string: "Cl.N[14CH2][C@H]1OB(O)c2c(OCCCO)cccc21"
  dose excreted at 24 h: "0.1%"

====

test: Total drug recovery in healthy human at 1500 mg, iv infusion for 1 hr as single dose after 192 hrs; format: ADME, organism-based; conditions: in vivo, read-out: Drug recovery

- structure_string: "Cl.N[14CH2][C@H]1OB(O)c2c(OCCCO)cccc21"
  unit_annotation: "%"
  dose excreted at 192 h: 95

====

test: Drug recovery in healthy human feces at 1500 mg, iv infusion for 1 hr as single dose after 192 hrs; format: ADME, organism-based; settings: faeces, read-out: Drug recovery
measurement_kind: dose excreted at 192 h

- structure_string: "Cl.N[14CH2][C@H]1OB(O)c2c(OCCCO)cccc21"
  measurement_kind: "dose excreted at 192 h"
  readout_value: "7.6%"

====

experiment: Cmax in healthy human plasma at 1500 mg, iv infusion for 1 hr as single dose; assay type: ADME, organism-based; parameters: dose 1500 mg, route intravenous
measurement_kind: Cmax (ng/mL)

- structure_string: "Cl.NC[C@H]1OB(O)c2c(OCCCO)cccc21"
  measurement_kind: "Cmax"
  readout_value: 24600

====

assay: Drug recovery in healthy human feces at 1500 mg, iv infusion for 1 hr as single dose after 264 hrs; assay type: ADME, organism-based; conditions: faeces, read-out: Drug recovery
measurement_kind: dose excreted at 264 h

- structure_string: "Cl.N[14CH2][C@H]1OB(O)c2c(OCCCO)cccc21"
  measurement_kind: "dose excreted at 264 h"
  readout_value: "7.6%"

====

experiment: Drug recovery in healthy human feces at 1500 mg, iv infusion for 1 hr as single dose after 168 hrs; format: ADME, organism-based; details: faeces, read-out: Drug recovery

- structure_string: "Cl.N[14CH2][C@H]1OB(O)c2c(OCCCO)cccc21"
  dose excreted at 168 h [%]: 7.6

====

assay: Volume of distribution at steady state in cynomolgus monkey at 35 mg/kg, iv administered as single infusion for 1 hr followed single oral dose of 35 mg/kg 4-MP; assay type: ADME, organism-based, Macaca fascicularis; details: in vivo, read-out: Vdss

- structure_string: "Cl.NC[C@H]1OB(O)c2c(OCCCO)cccc21"
  Vd: "2.53 L/kg"

====

assay: Volume of distribution at steady state in healthy human plasma at 1500 mg, iv infusion for 1 hr as single dose; type: ADME, organism-based; conditions: read-out: Vdss
measurement_kind: Vd (L)

- structure_string: "Cl.NC[C@H]1OB(O)c2c(OCCCO)cccc21"
  measurement_kind: "Vd"
  unit_annotation: "L"
  readout_value: 197

====

assay: Total drug recovery in healthy human at 1500 mg, iv infusion for 1 hr as single dose after 72 hrs; assay type: ADME, organism-based; conditions: in vivo, read-out: Drug recovery

- structure_string: "Cl.N[14CH2][C@H]1OB(O)c2c(OCCCO)cccc21"
  dose excreted at 72 h: "81.2%"

====

test: Tmax in healthy human plasma at 1500 mg, iv infusion for 1 hr as single dose; type: ADME, organism-based

- structure_string: "Cl.NC[C@H]1OB(O)c2c(OCCCO)cccc21"
  Tmax [min]: 55

====

experiment: Drug recovery in healthy human urine at 1500 mg, iv infusion for 1 hr as single dose after 264 hrs; type: ADME, organism-based; conditions: read-out: Drug recovery

- structure_string: "Cl.N[14CH2][C@H]1OB(O)c2c(OCCCO)cccc21"
  unit_annotation: "%"
  dose excreted at 264 h: 89.3

====

test: Half life in cynomolgus monkey at 35 mg/kg, iv administered as single infusion for 1 hr followed single oral dose of 35 mg/kg 4-MP; assay type: ADME, organism-based, Macaca fascicularis; details: in vivo

- structure_string: "Cl.NC[C@H]1OB(O)c2c(OCCCO)cccc21"
  unit_annotation: "h"
  half-life: 9.2

====

assay: Drug recovery in healthy human urine at 1500 mg, iv infusion for 1 hr as single dose after 144 hrs; assay type: ADME, organism-based; conditions: read-out: Drug recovery
measurement_kind: dose excreted at 144 h

- structure_string: "Cl.N[14CH2][C@H]1OB(O)c2c(OCCCO)cccc21"
  measurement_kind: "dose excreted at 144 h"
  readout_value: "85.1%"

====

test: Drug recovery in cynomolgus monkey liver cytosol at pH 7.4 treated with [14C]GSK2251052 at 500 uM after 3 hrs by liquid scintillation counting in presence of NAD+; assay type: ADME, Macaca fascicularis; settings: pH 7.4, 3 h

- structure_string: "Cl.NC[C@H]1OB(O)c2c(OCCC(=O)O)cccc21"
  Drug recovery: "1.7%"

====

experiment: Tmax in cynomolgus monkey at 35 mg/kg, iv administered as single infusion for 1 hr; type: ADME, organism-based, Macaca fascicularis; design: dose 35 mg/kg, route intravenous; details: in vivo
measurement_kind: Tmax (min)

- structure_string: "Cl.NC[C@H]1OB(O)c2c(OCCCO)cccc21"
  unit_annotation: "min"
  readout_value: 55.2

====

assay: AUC (0 to t) in healthy human plasma at 1500 mg, iv infusion for 1 hr as single dose; format: ADME, organism-based

- structure_string: "Cl.NC[C@H]1OB(O)c2c(OCCCO)cccc21"
  AUC(0-t) at 1 h / µg·h/mL: 72.3

====

experiment: Drug recovery in healthy human urine at 1500 mg, iv infusion for 1 hr as single dose after 120 hrs; assay type: ADME, organism-based; details: read-out: Drug recovery

- structure_string: "Cl.N[14CH2][C@H]1OB(O)c2c(OCCCO)cccc21"
  unit_annotation: "%"
  dose excreted at 120 h: 83.4

====

experiment: Mean residence time in cynomolgus monkey at 35 mg/kg, iv administered as single infusion for 1 hr; type: ADME, organism-based, Macaca fascicularis; set-up: dose 35 mg/kg, route intravenous; conditions: in vivo

- structure_string: "Cl.NC[C@H]1OB(O)c2c(OCCCO)cccc21"
  unit_annotation: "h"
  MRT: 4.9

====

test: Drug recovery in cynomolgus monkey liver S9 fraction at pH 8.8 treated with [14C]GSK2251052 at 500 uM after 3 hrs by liquid scintillation counting in presence of NAD+; assay type: ADME, subcellular, Macaca fascicularis; settings: s9, pH 8.8, 3 h

- structure_string: "Cl.NC[C@H]1OB(O)c2c(OCCC(=O)O)cccc21"
  unit_annotation: "%"
  Drug recovery: 4.3

====

experiment: Total drug recovery in healthy human at 1500 mg, iv infusion for 1 hr as single dose after 120 hrs; assay type: ADME, organism-based; conditions: in vivo, read-out: Drug recovery
measurement_kind: dose excreted at 120 h (%)

- structure_string: "Cl.N[14CH2][C@H]1OB(O)c2c(OCCCO)cccc21"
  measurement_kind: "dose excreted at 120 h"
  readout_value: 90.7

====

assay: Total drug recovery in healthy human at 1500 mg, iv infusion for 1 hr as single dose after 168 hrs; format: ADME, organism-based; settings: in vivo, read-out: Drug recovery

- structure_string: "Cl.N[14CH2][C@H]1OB(O)c2c(OCCCO)cccc21"
  unit_annotation: "%"
  dose excreted at 168 h: 94

====

experiment: Drug recovery in healthy human urine at 1500 mg, iv infusion for 1 hr as single dose after 72 hrs; format: ADME, organism-based; details: read-out: Drug recovery

- structure_string: "Cl.N[14CH2][C@H]1OB(O)c2c(OCCCO)cccc21"
  unit_annotation: "%"
  dose excreted at 72 h: 76.9

====

assay: Drug recovery in healthy human urine at 1500 mg, iv infusion for 1 hr as single dose after 288 hrs; type: ADME, organism-based; settings: read-out: Drug recovery

- structure_string: "Cl.N[14CH2][C@H]1OB(O)c2c(OCCCO)cccc21"
  dose excreted at 288 h / %: 89.8
